Assay: qHTS assay for small molecules that induce genotoxicity in human embryonic kidney cells expressing luciferase-tagged ATAD5 (AID 651632); note: nearly all actives have a fitted effect of over 15% in size
Settings: HEK293T ATAD5-luciferase induction, 16 h; series mostly up to 83.3 µM
Inconclusive results are not listed. The source made the active and inactive calls. Calls come from the whole dose curve; as a rule, active = well fitted activation curve with a large enough effect in the repeat runs; inconclusive = weak or mixed curves; inactive = no such curve, though single readings can be large or run the other way.
OBSERVATION TYPE: outcome

A selection of reference data follows.
>  <COMPOUND>
C=C(C#N)CCC#N

>  <outcome>
inactive

$$$$
>  <COMPOUND>
Cc1ccccc1CCl

>  <outcome>
inactive

$$$$
>  <COMPOUND>
Cl/C=C\Cl

>  <outcome>
inactive

$$$$
>  <COMPOUND>
NCC(CC(=O)O)c1ccc(Cl)cc1 (centres undefined)

>  <outcome>
inactive

$$$$
>  <COMPOUND>
O=C(CBr)OCc1ccccc1

>  <outcome>
inactive

$$$$

Quick one: outcome for C=CC(=O)OC(C)(C)C ? inactive

outcome lookup needed for Cc1ccc(N)cc1C , thanks. inactive

###

Molecular target: Aromatase (Homo sapiens)
Assay: qHTS assay to identify aromatase inhibitors (AID 743083); note: nearly all actives have a fitted effect of over 55% in size
Conditions: MCF-7 aro ERE, testosterone-driven ERE luciferase, 24 h; series mostly up to 70.3 µM
Records with an inconclusive call do not appear. Active and inactive are the calls of the source. The call rests on the fitted dose curve; in most records, active means well fitted inhibition curve with a large enough effect in the repeat runs; inconclusive means weak or mixed curves; inactive means no such curve, though single readings can be large or run the other way.
Answer with one of the outcomes T = active, F = inactive

Worked examples, 3 molecules total:
>  <STRUCTURE SMILES>
IC(I)=C(I)I

>  <STUDY TARGET>
Aromatase (Homo sapiens)

>  <DISCRETE LABEL>
T

$$$$
>  <STRUCTURE SMILES>
CC(C)=CCOc1c2occc2cc2ccc(=O)oc12

>  <STUDY TARGET>
Aromatase (Homo sapiens)

>  <DISCRETE LABEL>
F

$$$$
>  <STRUCTURE SMILES>
CCCCCC[N+](=O)[O-]

>  <STUDY TARGET>
Aromatase (Homo sapiens)

>  <DISCRETE LABEL>
F

$$$$

Please let me know the test result on file for CCOP(=S)(OCC)SCn1nnc2ccccc2c1=O . T

I would be grateful if you could indicate the recorded call for CO/C=C(/C(=O)OC)c1ccccc1COc1cccc(C(F)(F)F)n1 . T

Status in this test for Nc1ccc([N+](=O)[O-])cc1[N+](=O)[O-] ? F

Returns: the outcome recorded for CC(=O)CCC(C)=O in this assay. F

###

Experiment: A CellTox Green Cytotoxicity Assay to monitor cytotoxicity in HEK293 cells - 8 hour (AID 1224884); note: nearly all actives have a fitted effect of over 35% in size
Details: CellTox Green fluorescence; series mostly up to 76.8 µM
Results filed as inconclusive are left out. The source made the active and inactive calls. Calls follow the shape of the dose curve; as a rule, active = well fitted activation curve with a large enough effect in the repeat runs; inconclusive = weak or mixed curves; inactive = flat fitted curve, though single readings scatter.
Your reply should match one of these outcome classes. T = active, F = inactive

Solved cases (3 shown):
>  <COMPOUND>
CCOc1nc(F)cc2nc(S(=O)(=O)Nc3c(Cl)cccc3Cl)nn12

>  <DISCRETE LABEL>
F

$$$$
>  <COMPOUND>
CCOc1ccc(C(C)(C)COCc2cccc(Oc3ccccc3)c2)cc1

>  <DISCRETE LABEL>
F

$$$$
>  <COMPOUND>
C=CC[C@]1(O)CC[C@H]2[C@@H]3CCC4=CC(=O)CCC4=C3C=C[C@@]21C

>  <DISCRETE LABEL>
F

$$$$

Here is another compound to look at.
Recorded call for O=Cc1ccc2c(c1)OCO2 ? F

###

Test: qHTS assay to identify small molecule antagonists of the androgen receptor (AR) signaling pathway - cell viability counter screen (AID 743033; note: nearly all actives have a fitted effect of over 45% in size)
Settings: AR-bla HEK293 viability, CellTiter-Glo luminescence, 16 h; series mostly up to 58.5 µM
Inconclusive results are not listed. Active and inactive are the calls of the source. Calls come from the whole dose curve; as a rule, active = well fitted cell-killing curve with a large enough effect in the repeat runs; inconclusive = weak or mixed curves; inactive = no such curve, though single readings can be large or run the other way.
Your response should consist of one outcome taken from active, inactive

Examples from the recorded data:
>  <COMPOUND>
COC(=O)C(Cl)C(=O)OC

>  <DISCRETE LABEL>
inactive

$$$$
>  <COMPOUND>
CC(O)(CS(=O)(=O)c1ccc(F)cc1)C(=O)Nc1ccc(C#N)c(C(F)(F)F)c1 (stereo unspecified)

>  <DISCRETE LABEL>
inactive

$$$$
>  <COMPOUND>
C[C@H]1CNCCc2ccc(Cl)cc21

>  <DISCRETE LABEL>
inactive

$$$$
>  <COMPOUND>
CCOc1nc(F)cc2nc(S(=O)(=O)Nc3c(Cl)cccc3Cl)nn12

>  <DISCRETE LABEL>
inactive

$$$$
>  <COMPOUND>
Cc1c(F)c(F)c(COC(=O)C2C(/C=C(\Cl)C(F)(F)F)C2(C)C)c(F)c1F (stereo unspecified)

>  <DISCRETE LABEL>
inactive

$$$$
>  <COMPOUND>
COP(=S)(OC)Oc1ccc([N+](=O)[O-])cc1Cl

>  <DISCRETE LABEL>
inactive

$$$$
>  <COMPOUND>
CC(C)(C)C(O)C(Oc1ccc(Cl)cc1)n1cncn1 (stereo unspecified)

>  <DISCRETE LABEL>
inactive

$$$$
>  <COMPOUND>
CC(=O)NC1CCSC1=O (stereo unspecified)

>  <DISCRETE LABEL>
inactive

$$$$

Recorded call for CC(C)O.CC(C)O.OCCN(CCO)CCO.OCCN(CCO)CCO.[Ti] ? inactive

Short answer needed: outcome of this test for O=NN1CCCCCC1 ? inactive

# fetch the recorded call for O=Cc1ccc(Cl)cc1Cl here inactive

Dear colleague, could you share the recorded outcome for COC(N)=O when you have a moment? inactive

Called result for Cn1cc[n+](C)c1 (tested in a mixture with another compound) inactive

Test call, this compound: C=CCN1CC[C@]23c4c5ccc(O)c4O[C@H]2C(=O)CC[C@@]3(O)[C@H]1C5 inactive
